Quick reference: melting point of the listed items.

Please review the entries below; each comes with its answer.
N#Cc1cnc2sc(-c3cccc(C=O)c3)cc2c1Nc1ccc2[nH]ccc2c1 :: 221 to 223 °C
COc1ccc(N2CC(=O)N(CCN)C2=O)cc1OC :: 162 to 164 °C
CC1=C(CCOC(=O)C(C)(C)C)C2=C(O)N(I)CN(CCOC(=O)C(C)(C)C)C2=N1 :: 155 °C
CCCCCCCCCCCCCCCCOC(=O)c1cc(C(=O)OCCCCCCCCCCCCCCCC)cc(S(=O)(=O)O)c1 :: 63 to 65 °C
CC(=O)N(C)c1c(C(=O)c2cccc(C)c2)[nH]c2cc(Cl)ccc12 :: 166 to 171 °C
CCN1C(=O)CN=C(c2ccccc2F)c2cc(C(C)=O)ccc21 :: 154 to 156 °C

Exercise: What measured melting point goes with O=S(=O)(c1ccccc1)N1CCN(CC(O)CCl)CC1 (centres undefined) ?
Key: 136 to 137 °C

Exercise: Also need CCCC(CCC)N(C[C@H]1CCC[C@H](CN(C(=O)Nc2ccc(N(C)C)cc2)C(CCC)CCC)C1)C(=O)Nc1ccc(N(C)C)cc1 (relative stereo) , thanks.
Key: 122 to 126 °C

Exercise: Also need NS(=O)(=O)c1ccc(-c2cc(F)c(F)cc2-c2ccc(F)c(Cl)c2)cc1 , thanks.
Key: 162 to 163 °C

###

Quick reference: melting point of the listed items.

Please review the entries below; each comes with its answer.
O=C(Nc1nnco1)C(c1ccccc1)c1ccccc1 :: 131 to 132 °C
O=C(Nc1ccc(C(=O)N2Cc3ccccc3Cc3ccccc32)cc1)c1cccnc1 :: 217 to 220 °C
CC1(C)C(=O)Nc2ccc(C3(C#N)C=CC=N3)cc21 (stereo not given) :: 256 to 258 °C
O=C(O)c1c(Cc2cc3c(cc2Cl)OCO3)c(-c2ccco2)nn1CC1CCCCC1 :: 248 °C

Exercise: What measured melting point goes with CCCCSC1(SCCCC)CCC2C3CCC4=CC(=O)C=CC4(C)C3(F)C(O)CC21C (stereo not given) ?
Key: 160 to 162 °C

###

Quick reference: melting point of the listed items.
Give a bare numeral; the unit °C is implied.

Exercise: What measured melting point goes with O=C(NC(Cc1c[nH]c2ccccc12)C(=O)OCc1ccc(Cl)cc1)c1ccccc1 (stereo not given) ?
Key: 119

Exercise: Also need CCOC(=O)c1ccc(-c2cnc3c(c2)N(Cc2ccccc2)C(=O)CN3)cc1 , thanks.
Key: 178

###

Quick reference: melting point of the listed items.

Please review the entries below; each comes with its answer.
CC(=O)N(C)C1CCNCC1 :: < 50 °C
Cc1nc(N)nc(N)c1C=CC(C)(C)c1ccc(F)cc1 :: 164 to 168 °C
CSC(Nc1cc(C(F)(F)F)cc(C(F)(F)F)c1)=C(C#N)S(=O)(=O)c1ccc(Cl)cc1 :: 150 to 152 °C

Exercise: What measured melting point goes with CCCCc1ccc(NC(=O)NOCc2ccccc2)cc1 ?
Key: 90.6 to 91.4 °C

Exercise: Also need Cc1oc(-c2ccccc2)nc1CC#Cc1ccc(CC(C(=O)O)c2cccc(-c3ccccc3)c2)cc1 (stereo not drawn) , thanks.
Key: 105 to 107 °C

Exercise: Also need O=C(Oc1ccc([N+](=O)[O-])cc1)c1ccc2[nH]cc(CCN3C(=O)c4ccccc4C3=O)c2c1 , thanks.
Key: 248 to 251 °C
